Catalogue of A3, EC50 as a ratio of that of NECA values
system_tested: adenosine 3 receptor (Homo sapiens, UniProt P0DMS8)
Construct: expressed in transfected cells; host or cells: CHO cells
Sequence (P0DMS8 whole entry): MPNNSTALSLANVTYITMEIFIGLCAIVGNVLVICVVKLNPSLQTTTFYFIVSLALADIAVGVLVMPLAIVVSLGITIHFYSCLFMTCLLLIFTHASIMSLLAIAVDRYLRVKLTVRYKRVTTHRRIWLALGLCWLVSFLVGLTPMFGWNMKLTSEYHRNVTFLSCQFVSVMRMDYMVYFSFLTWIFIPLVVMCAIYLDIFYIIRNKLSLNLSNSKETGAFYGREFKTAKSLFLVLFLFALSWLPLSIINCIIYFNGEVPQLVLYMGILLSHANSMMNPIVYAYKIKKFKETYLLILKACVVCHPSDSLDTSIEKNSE
measurement_description: Agonist activity, CHO cells transfected with human adenosine receptor and CRE-SPAP reporter; forskolin-enhanced cAMP (A3)
Assay type: cell-based
condition_set: ratio to NECA; CHO cells, SPAP readout
Experimental: (1) Agonist activity against adenosine 2a, adenosine 1 and adenosine 3 receptor subtypes. Agonist selectivity of compounds against other human adenosine receptors is determined using Chinese hamster ovary (CHO) cells transfected with the gene for the relevant human adenosine receptor following a method based on that of Castanon and Spevak, 1994. […] EC50 values for compounds may then be determined as a ratio to that of the non-selective agonist N-ethyl carboxamide adenosine (NECA).

Examples with their reported A3, EC50 as a ratio of that of NECA follow.
smiles_str=Cc1noc([C@H]2O[C@@H](n3cnc4c(N)nc(NCCc5ccccc5)nc43)[C@H](O)[C@@H]2O)n1.O=C(O)C(F)(F)F meas_value=>130
smiles_str=CCc1noc([C@H]2O[C@@H](n3cnc4c(NCC(c5ccccc5)c5ccccc5)nc(NCCN5CCCCC5)nc43)[C@H](O)[C@@H]2O)n1.O=CO meas_value=>258

Proceed to the following item.
Just so you know, measured A3, EC50 as a ratio of that of NECA for CCc1noc([C@H]2O[C@@H](n3cnc4c(NCC(c5ccccc5)c5ccccc5)nc(Nc5ccc(F)cc5)nc43)[C@H](O)[C@@H]2O)n1.O=CO came out at >165

---

Form field: A3, EC50 as a ratio of that of NECA (one value per entry).
system_tested: adenosine 3 receptor (Homo sapiens, UniProt P0DMS8)
Construct: expressed in transfected cells; host or cells: CHO cells
measurement_description: Agonist activity, CHO cells transfected with human adenosine receptor and CRE-SPAP reporter; forskolin-enhanced cAMP (A3)
Type: cell-based
condition_set: ratio to NECA; * data are minimum values since preparation was found, after testing, to contain an inactive impurity

// worked examples, A3, EC50 as a ratio of that of NECA included
compound="CCc1noc([C@H]2O[C@@H](n3cnc4c(NC(CC)CC)nc(NCCc5ccccn5)nc43)[C@H](O)[C@@H]2O)n1.O=CO [Example 21]" system_tested="adenosine 3 receptor (Homo sapiens, UniProt P0DMS8)" meas_value=>303
compound="CCC(CC)Nc1nc(N[C@H]2CC[C@H](N)CC2)nc2c1ncn2[C@@H]1O[C@H](c2nc(C)no2)[C@@H](O)[C@H]1O.O=CO [Example 16]" system_tested="adenosine 3 receptor (Homo sapiens, UniProt P0DMS8)" meas_value=>362
compound="CCc1noc([C@H]2O[C@@H](n3cnc4c(NC(CC)CC)nc(NCCN5CCOCC5)nc43)[C@H](O)[C@@H]2O)n1.O=CO [Example 19]" system_tested="adenosine 3 receptor (Homo sapiens, UniProt P0DMS8)" meas_value=>694
compound="CCC(CC)Nc1nc(NC(CO)Cc2ccccc2)nc2c1ncn2C1OC(c2nc(C)no2)C(O)C1O (stereo not shown) [Example 17]" system_tested="adenosine 3 receptor (Homo sapiens, UniProt P0DMS8)" meas_value=>362
compound="Cc1noc([C@H]2O[C@@H](n3cnc4c(N)nc(NCCc5cn(C)cn5)nc43)[C@H](O)[C@@H]2O)n1.O=C(O)C(F)(F)F.O=C(O)C(F)(F)F [Example 7]" system_tested="adenosine 3 receptor (Homo sapiens, UniProt P0DMS8)" meas_value=>117

Lab note: measured A3, EC50 as a ratio of that of NECA of CCC(CC)Nc1nc(NCCN2CCOCC2)nc2c1ncn2[C@@H]1O[C@H](c2nc(C)no2)[C@@H](O)[C@H]1O.O=CO [Example 6] was >642

# compound Cc1noc(C2OC(n3cnc4c(NCC(c5ccccc5)c5ccccc5)nc(NCCc5c[nH]cn5)nc43)C(O)C2O)n1 (stereo not shown) [Example 34] ; its A3, EC50 as a ratio of that of NECA = 231.1

---

system_tested: adenosine 2a receptor (Homo sapiens)
Construct: expressed in transfected cells; host or cells: CHO cells
Sequence (P29274 whole entry): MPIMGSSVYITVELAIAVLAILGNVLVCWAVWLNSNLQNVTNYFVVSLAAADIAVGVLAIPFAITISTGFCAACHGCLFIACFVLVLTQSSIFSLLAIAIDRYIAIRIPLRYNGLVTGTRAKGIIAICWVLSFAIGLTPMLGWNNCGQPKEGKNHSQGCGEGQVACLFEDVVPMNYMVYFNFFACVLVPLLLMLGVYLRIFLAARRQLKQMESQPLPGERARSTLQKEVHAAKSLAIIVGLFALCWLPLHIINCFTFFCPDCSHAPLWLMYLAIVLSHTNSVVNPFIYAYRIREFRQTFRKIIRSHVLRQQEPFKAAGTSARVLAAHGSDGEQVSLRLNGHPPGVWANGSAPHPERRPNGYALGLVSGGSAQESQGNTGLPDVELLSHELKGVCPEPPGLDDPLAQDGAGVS
measurement_description: Agonist activity, CHO cells transfected with human adenosine receptor and CRE-SPAP reporter; basal cAMP (A2a)
Assay type: cell-based
condition_set: ratio to NECA; CHO cells, SPAP readout
Under this convention, TRUE denotes A2a, EC50 as a ratio of that of NECA strictly below 6 and FALSE denotes A2a, EC50 as a ratio of that of NECA at or above 6.

compound=CCc1noc([C@H]2O[C@@H](n3cnc4c(NCC(c5ccccc5)c5ccccc5)nc(NCCO)nc43)[C@H](O)[C@@H]2O)n1.O=CO cat=FALSE

Say whether its A2a, EC50 as a ratio of that of NECA is strictly beneath 6. Entry: CCc1noc([C@H]2O[C@@H](n3cnc4c(NC(CC)CC)nc(NC5CCCC5)nc43)[C@H](O)[C@@H]2O)n1.O=CO
FALSE

Answer whether the compound CCc1noc(C2OC(n3cnc4c(NCCC(C)(C)C)nc(NCCc5cn(C)cn5)nc43)C(O)C2O)n1.O=CO.O=CO (stereo not drawn) has A2a, EC50 as a ratio of that of NECA strictly less than 6
TRUE

Does CCc1noc([C@H]2O[C@@H](n3cnc4c(NCC(c5ccccc5)c5ccccc5)nc(NCCN5CCCCC5)nc43)[C@H](O)[C@@H]2O)n1.O=CO have A2a, EC50 as a ratio of that of NECA strictly under 6?
FALSE

Dear colleague, could you confirm whether A2a, EC50 as a ratio of that of NECA of Cc1noc([C@H]2O[C@@H](n3cnc4c(NCC(c5ccccc5)c5ccccc5)nc(NCCc5cn(C)cn5)nc43)[C@H](O)[C@@H]2O)n1.O=C(O)C(F)(F)F.O=C(O)C(F)(F)F falls below 6? Thanks.
TRUE

Hi there! Is A2a, EC50 as a ratio of that of NECA for CCc1noc([C@H]2O[C@@H](n3cnc4c(NCC(c5ccccc5)c5ccccc5)nc(Nc5ccc(F)cc5)nc43)[C@H](O)[C@@H]2O)n1.O=CO below 6, do you know?
FALSE

---

Listed here are molecules together with their documented A3, EC50 as a ratio of that of NECA.
system_tested: adenosine 3 receptor (Homo sapiens)
Construct: expressed in transfected cells; host or cells: CHO cells
measurement_description: Agonist activity, CHO cells transfected with human adenosine receptor and CRE-SPAP reporter; forskolin-enhanced cAMP (A3)
Type: cell-based
condition_set: ratio to NECA; CHO cells, SPAP readout

The reported A3, EC50 as a ratio of that of NECA of the molecule CCC(CC)Nc1nc(NCCN2CCCCC2)nc2c1ncn2C1OC(c2nc(C3CC3)no2)C(O)C1O (stereo not shown) was >194

// A3, EC50 as a ratio of that of NECA lookup, molecule = CCc1noc(C2OC(n3cnc4c(NCC(c5ccccc5)c5ccccc5)nc(NCCN5CCCC5)nc43)C(O)C2O)n1.O=CO.O=CO (stereo not shown) , result: >130

// recorded A3, EC50 as a ratio of that of NECA for Cc1noc([C@H]2O[C@@H](n3cnc4c(NCC(c5ccccc5)c5ccccc5)nc(NCCc5cn(C)cn5)nc43)[C@H](O)[C@@H]2O)n1.O=C(O)C(F)(F)F.O=C(O)C(F)(F)F : >197

Record CCc1noc(C2OC(n3cnc4c(NCC(c5ccccc5)c5ccccc5)nc(NC5CCN(Cc6ccccc6)C5)nc43)C(O)C2O)n1 (stereo not shown) , field A3, EC50 as a ratio of that of NECA: >165

---

system_tested: adenosine 2a receptor (Homo sapiens)
Construct: expressed in transfected cells; host or cells: CHO cells
measurement_description: Agonist activity, CHO cells transfected with human adenosine receptor and CRE-SPAP reporter; basal cAMP (A2a)
Type: cell-based
condition_set: ratio to NECA; * data are minimum values since preparation was found, after testing, to contain an inactive impurity
Consider the cut-off 9. If the recorded A2a, EC50 as a ratio of that of NECA is strictly smaller, the label is 1.0; if not, the label is 0.0.

The following compounds have reported results that may help.
compound="CCc1noc(C2OC(n3cnc4c(NC(CC)CC)nc(NC5CCNC5)nc43)C(O)C2O)n1 (stereo not shown) [Example 27]" cat=0.0
compound="CCC(CC)Nc1nc(N[C@H]2CC[C@H](N)CC2)nc2c1ncn2[C@@H]1O[C@H](c2nc(C)no2)[C@@H](O)[C@H]1O.O=CO [Example 16]" cat=0.0
compound="CCc1noc([C@H]2O[C@@H](n3cnc4c(NC(CC)CC)nc(NCCN5CCOCC5)nc43)[C@H](O)[C@@H]2O)n1.O=CO [Example 19]" cat=0.0
compound="CCc1noc(C2OC(n3cnc4c(NCC(c5ccccc5)c5ccccc5)nc(NC5CCNC5)nc43)C(O)C2O)n1 (stereo not shown) [Example 3]" cat=1.0
compound="CCC(CC)Nc1nc(NC(CO)Cc2ccccc2)nc2c1ncn2C1OC(c2nc(C)no2)C(O)C1O (stereo not shown) [Example 17]" cat=1.0
compound="CCc1noc([C@H]2O[C@@H](n3cnc4c(NC(CC)CC)nc(NCCc5ccccn5)nc43)[C@H](O)[C@@H]2O)n1.O=CO [Example 21]" cat=0.0

Lab note: next compound to report on.
Please state whether A2a, EC50 as a ratio of that of NECA is below 9 for Cc1noc(C2OC(n3cnc4c(N)nc(NCCc5ccccn5)nc43)C(O)C2O)n1.O=CO.O=CO (stereo not shown) [Example 30]
0.0
